measuredTarget: VEGFR3 cytoplasmic domain (Homo sapiens, UniProt P35916, DEL949-1002)
Construct: VEGFR3 cytoplasmic domain (amino acids 798-1298) was purchased as N-terminal GST-fusion protein; purchased
Sequence (P35916 with tags, fused parts or gaps DEL949-1002): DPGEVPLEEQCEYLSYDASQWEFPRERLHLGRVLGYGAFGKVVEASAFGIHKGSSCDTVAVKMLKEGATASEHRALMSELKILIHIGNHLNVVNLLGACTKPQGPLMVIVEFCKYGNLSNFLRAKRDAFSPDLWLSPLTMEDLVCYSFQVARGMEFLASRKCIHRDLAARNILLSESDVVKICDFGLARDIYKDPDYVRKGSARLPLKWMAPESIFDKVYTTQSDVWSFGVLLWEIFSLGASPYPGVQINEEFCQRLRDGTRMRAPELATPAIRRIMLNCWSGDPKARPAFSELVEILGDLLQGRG
testMethodNotes: biochemical
settings: modified form (*): N-terminal Hexa-His-fusion protein, amino acids 818-1177 lacking 949-1002; read-out: IC50
measurementName: pIC50
Would you please state pIC50, meaning minus log10 of the concentration in mol/L, as a bare number?

Req: Fill blank: measured pIC50 of the molecule `CN1CCN(c2ccc(Nc3ncc(C(F)(F)F)c(CCc4cccc(C(N)=O)c4)n3)cc2)CC1` is ____.
Resp: 6.92
